This collection of values is drawn from ChEMBL document CHEMBL4364271.

# Tested on: Streptococcus pneumoniae D39
# method description: Agonist activity at ComD1 receptor in Streptococcus pneumoniae D39 harboring pcomX/lacZ reporter gene at 10 uM incubated for 30 mins by ONPG based beta-galactosidase assay relative to native CSP1
Calls of active or inactive are those of the source. The rule behind the calls is not given here. Non-standard residues stand in square brackets, D forms with d. Residues, ends and D or L forms follow the SMILES beside them. NMeE = CN[C@@H](CCC(=O)O)C(=O)O; NMeM = CN[C@@H](CCSC)C(=O)O
metric name: Activity

INSERT INTO results (compound, metric_name, reported_result) VALUES
  ('CC[C@H](C)[C@H](NC(=O)[C@H](Cc1ccccc1)NC(=O)[C@H](CC(=O)O)NC(=O)[C@H](CCCNC(=N)N)NC(=O)[C@H](Cc1ccccc1)NC(=O)[C@H](Cc1ccccc1)NC(=O)[C@H](CCCCN)NC(=O)[C@H](CO)NC(=O)[C@H](CC(C)C)NC(=O)[C@H](CCCNC(=N)N)NC(=O)[C@H](CCSC)NC(=O)[C@H](CCC(=O)O)NC)C(=O)N[C@@H](CC(C)C)C(=O)N[C@@H](CCC(N)=O)C(=O)N[C@@H](CCCNC(=N)N)C(=O)O (H-[NMeE]MRLSKFFRDFILQR-OH)', 'Activity', 'inactive'),
  ('CC[C@H](C)[C@H](NC(=O)[C@H](CCCNC(=N)N)NC(=O)[C@H](CCSC)N(C)C(=O)[C@@H](N)CCC(=O)O)C(=O)N[C@@H](CO)C(=O)N[C@@H](CCCNC(=N)N)C(=O)N[C@H](C(=O)N[C@H](C(=O)N[C@@H](CC(C)C)C(=O)N[C@@H](CC(=O)O)C(=O)N[C@@H](Cc1ccccc1)C(=O)N[C@@H](CC(C)C)C(=O)N[C@@H](Cc1ccccc1)C(=O)O)[C@@H](C)CC)[C@@H](C)CC (H-E[NMeM]RISRIILDFLF-OH)', 'Activity', 'inactive');

---

# method description: Metabolic stability in human plasma at 0.33 mM measured for 3 hrs by RP-HPLC analysis
# Assay type: ADME, cell-free
# test parameters: 330 µM
metric name: Stability

INSERT INTO measurements (smiles_data, metric_name, reported_result) VALUES
  ('CC[C@H](C)[C@H](NC(=O)[C@H](CCCNC(=N)N)NC(=O)[C@H](CCSC)NC(=O)[C@H](C)N)C(=O)N[C@@H](CO)C(=O)N[C@@H](CCCNC(=N)N)C(=O)N[C@H](C(=O)N[C@H](C(=O)N[C@@H](CC(C)C)C(=O)N[C@H](CC(=O)O)C(=O)N[C@@H](Cc1ccccc1)C(=O)N[C@@H](CC(C)C)C(=O)N(C)[C@@H](Cc1ccccc1)C(=O)N[C@@H](CC(C)C)C(=O)N[C@@H](CCCNC(=N)N)C(=O)N[C@@H](CCCCN)C(=O)N[C@@H](CCCCN)C(=O)O)[C@@H](C)CC)[C@@H](C)CC', 'Stability', 'Unstable'),
  ('CC[C@H](C)[C@H](NC(=O)[C@H](Cc1ccccc1)NC(=O)[C@H](CC(=O)O)NC(=O)[C@H](CCCNC(=N)N)NC(=O)[C@H](Cc1ccccc1)NC(=O)[C@H](Cc1ccccc1)NC(=O)[C@H](CCCCN)N(C)C(=O)[C@H](CO)NC(=O)[C@H](CC(C)C)NC(=O)[C@H](CCCNC(=N)N)NC(=O)[C@H](CCSC)NC(=O)[C@H](C)N)C(=O)N[C@@H](CC(C)C)C(=O)N(C)[C@@H](CCC(N)=O)C(=O)N[C@@H](CCCNC(=N)N)C(=O)N[C@@H](CCCCN)C(=O)N[C@@H](CCCCN)C(=O)O', 'Stability', 'Unstable'),
  ('CC[C@H](C)[C@H](NC(=O)[C@H](Cc1ccccc1)NC(=O)[C@H](CC(=O)O)NC(=O)[C@H](CCCNC(=N)N)NC(=O)[C@H](Cc1ccccc1)NC(=O)[C@H](Cc1ccccc1)NC(=O)[C@H](CCCCN)N(C)C(=O)[C@H](CO)NC(=O)[C@H](CC(C)C)NC(=O)[C@H](CCCNC(=N)N)NC(=O)[C@H](CCSC)NC(=O)[C@H](C)N)C(=O)N[C@@H](CC(C)C)C(=O)N[C@@H](CCC(N)=O)C(=O)N[C@@H](CCCNC(=N)N)C(=O)N[C@@H](CCCCN)C(=O)N[C@@H](CCCCN)C(=O)O', 'Stability', 'Unstable');

---

# Tested on: Streptococcus pneumoniae TIGR4
# method description: Agonist activity at ComD2 receptor in Streptococcus pneumoniae TIGR4 harboring pcomX/lacZ reporter gene at 10 uM incubated for 30 mins by ONPG based beta-galactosidase assay relative to native CSP2
Active and inactive are the calls of the source. The calls are words filed in the database; no cut-off is given here. Non-standard residues stand in square brackets, D forms with d. Residues, ends and D or L forms follow the SMILES beside them. NMeR = CN[C@@H](CCCNC(=N)N)C(=O)O; NMeF = CN[C@@H](Cc1ccccc1)C(=O)O; NMeI = CC[C@H](C)[C@H](NC)C(=O)O; NMeE = CN[C@@H](CCC(=O)O)C(=O)O; NMeL = CN[C@@H](CC(C)C)C(=O)O; NMeK = CN[C@@H](CCCCN)C(=O)O; NMeS = CN[C@@H](CO)C(=O)O
metric name: Activity

Worked examples follow.
INSERT INTO results (compound, assay_system, metric_name, reported_result) VALUES
  ('CC[C@H](C)[C@H](NC(=O)[C@H](Cc1ccccc1)NC(=O)[C@H](CC(=O)O)NC(=O)[C@H](CCCNC(=N)N)NC(=O)[C@H](Cc1ccccc1)NC(=O)[C@H](Cc1ccccc1)NC(=O)[C@H](CCCCN)NC(=O)[C@H](CO)NC(=O)[C@H](CC(C)C)NC(=O)[C@H](CCCNC(=N)N)N(C)C(=O)[C@H](CCSC)NC(=O)[C@@H](N)CCC(=O)O)C(=O)N[C@@H](CC(C)C)C(=O)N[C@@H](CCC(N)=O)C(=O)N[C@@H](CCCNC(=N)N)C(=O)O (H-EM[NMeR]LSKFFRDFILQR-OH)', 'Streptococcus pneumoniae TIGR4', 'Activity', 'inactive'),
  ('CC[C@H](C)[C@H](NC(=O)[C@H](CCCNC(=N)N)NC(=O)[C@H](CCSC)NC(=O)[C@@H](N)CCC(=O)O)C(=O)N[C@@H](CO)C(=O)N[C@@H](CCCNC(=N)N)C(=O)N[C@H](C(=O)N[C@H](C(=O)N[C@@H](CC(C)C)C(=O)N[C@@H](CC(=O)O)C(=O)N(C)[C@@H](Cc1ccccc1)C(=O)N[C@@H](CC(C)C)C(=O)N[C@@H](Cc1ccccc1)C(=O)O)[C@@H](C)CC)[C@@H](C)CC (H-EMRISRIILD[NMeF]LF-OH)', 'Streptococcus pneumoniae TIGR4', 'Activity', 'inactive'),
  ('CC[C@H](C)[C@H](NC(=O)[C@H](Cc1ccccc1)NC(=O)[C@H](CC(=O)O)NC(=O)[C@H](CCCNC(=N)N)NC(=O)[C@H](Cc1ccccc1)NC(=O)[C@H](Cc1ccccc1)NC(=O)[C@H](CCCCN)NC(=O)[C@H](CO)NC(=O)[C@H](CC(C)C)NC(=O)[C@H](CCCNC(=N)N)NC(=O)[C@H](CCSC)NC(=O)[C@H](CCC(=O)O)NC)C(=O)N[C@@H](CC(C)C)C(=O)N[C@@H](CCC(N)=O)C(=O)N[C@@H](CCCNC(=N)N)C(=O)O (H-[NMeE]MRLSKFFRDFILQR-OH)', 'Streptococcus pneumoniae TIGR4', 'Activity', 'inactive'),
  ('CC[C@H](C)[C@H](NC(=O)[C@H](CCCNC(=N)N)NC(=O)[C@H](CCSC)NC(=O)[C@@H](N)CCC(=O)O)C(=O)N[C@@H](CO)C(=O)N[C@@H](CCCNC(=N)N)C(=O)N[C@H](C(=O)N[C@H](C(=O)N[C@@H](CC(C)C)C(=O)N[C@@H](CC(=O)O)C(=O)N[C@@H](Cc1ccccc1)C(=O)N(C)[C@@H](CC(C)C)C(=O)N[C@@H](Cc1ccccc1)C(=O)O)[C@@H](C)CC)[C@@H](C)CC (H-EMRISRIILDF[NMeL]F-OH)', 'Streptococcus pneumoniae TIGR4', 'Activity', 'inactive'),
  ('CC[C@H](C)[C@H](NC(=O)[C@H](Cc1ccccc1)NC(=O)[C@H](CC(=O)O)NC(=O)[C@H](CCCNC(=N)N)NC(=O)[C@H](Cc1ccccc1)NC(=O)[C@H](Cc1ccccc1)NC(=O)[C@H](CCCCN)N(C)C(=O)[C@H](CO)NC(=O)[C@H](CC(C)C)NC(=O)[C@H](CCCNC(=N)N)NC(=O)[C@H](CCSC)NC(=O)[C@@H](N)CCC(=O)O)C(=O)N[C@@H](CC(C)C)C(=O)N[C@@H](CCC(N)=O)C(=O)N[C@@H](CCCNC(=N)N)C(=O)O (H-EMRLS[NMeK]FFRDFILQR-OH)', 'Streptococcus pneumoniae TIGR4', 'Activity', 'inactive'),
  ('CC[C@H](C)[C@H](NC(=O)[C@H](CCCNC(=N)N)NC(=O)[C@H](CCSC)NC(=O)[C@@H](N)CCC(=O)O)C(=O)N[C@@H](CO)C(=O)N[C@@H](CCCNC(=N)N)C(=O)N[C@H](C(=O)N(C)[C@H](C(=O)N[C@@H](CC(C)C)C(=O)N[C@@H](CC(=O)O)C(=O)N[C@@H](Cc1ccccc1)C(=O)N[C@@H](CC(C)C)C(=O)N[C@@H](Cc1ccccc1)C(=O)O)[C@@H](C)CC)[C@@H](C)CC (H-EMRISRI[NMeI]LDFLF-OH)', 'Streptococcus pneumoniae TIGR4', 'Activity', 'inactive');

Entry CC[C@H](C)[C@H](NC(=O)[C@H](Cc1ccccc1)NC(=O)[C@H](CC(=O)O)NC(=O)[C@H](CCCNC(=N)N)NC(=O)[C@H](Cc1ccccc1)NC(=O)[C@H](Cc1ccccc1)NC(=O)[C@H](CCCCN)NC(=O)[C@H](CO)N(C)C(=O)[C@H](CC(C)C)NC(=O)[C@H](CCCNC(=N)N)NC(=O)[C@H](CCSC)NC(=O)[C@@H](N)CCC(=O)O)C(=O)N[C@@H](CC(C)C)C(=O)N[C@@H](CCC(N)=O)C(=O)N[C@@H](CCCNC(=N)N)C(=O)O (H-EMRL[NMeS]KFFRDFILQR-OH) ; Activity = > 75%
